experimental-protocol: chemical genetic growth profiling, strain panel (AID 1159580);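 also: tested at 20 µM; growth read once vehicle control cultures reached saturation at 30 °C; 1 = growth at the plate median or of vehicle wells; lower values mean less growth of the strain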
measurement-parameters: S. cerevisiae deletion strains, growth OD, locus YOR270C, strain vph1, active compounds read low
Screen size: about 5,500 compounds; about 2,000 (36%) were called active. Inconclusive results (about 18%) are left out. The list shows a part of the results.
recorded-metric: normalized growth
Just the number, please.

Given the entry C=C[C@@](C)(O)CCC1C(=C)C[C@H](OC(C)=O)C2C(C)(C)CCCC12C (stereo partly drawn) , report its measured normalized growth.
0.963

Given the entry C=C[C@@](C)(O)CCC1C(=C)C[C@H](O)C2C(C)(C)CCCC12C (stereo partly drawn) , report its measured normalized growth.
0.886

Given the entry c1ccc2c(c1)sc1ccccc12 , report its measured normalized growth.
1.02

Given the entry C=C1CCC2[C@](C)(CO)[C@H](O)CC[C@@]2(C)[C@@H]1C/C=C1/C(=O)OC[C@H]1O (stereo partly drawn) , report its measured normalized growth.
1.02

Given the entry O=C(O)CCCc1ccccc1 , report its measured normalized growth.
0.991

Given the entry O=c1c(-c2ccc(O)cc2)coc2cc(O)ccc12 , report its measured normalized growth.
0.913

Given the entry COc1ccc(-c2coc3cc(O)ccc3c2=O)c(OC)c1 , report its measured normalized growth.
0.959

Given the entry CC(C)NCC(O)COc1cccc2[nH]ccc12 (stereo not drawn) , report its measured normalized growth.
0.973

Given the entry OCCc1ccccc1 , report its measured normalized growth.
0.949

Given the entry CNC(=O)O/N=C(\C)SC , report its measured normalized growth.
1.02

Given the entry Cc1[nH]c2ccccc2c1CN(C)C , report its measured normalized growth.
1.07

Given the entry N[C@@H](Cc1ccc(N(CCCl)CCCl)cc1)C(=O)O , report its measured normalized growth.
0.981

Given the entry C=C[C@@](C)(O)CCC1C(=C)CCC2[C@@](C)(CO)CCC[C@]12C (stereo partly drawn) , report its measured normalized growth.
0.839

###

experimental-protocol: chemical genetic growth profiling, strain panel (AID 1159580);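 also: tested at 20 µM; growth read once vehicle control cultures reached saturation at 30 °C; 1 = growth at the plate median or of vehicle wells; lower values mean less growth of the strain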
measurement-parameters: S. cerevisiae deletion strains, growth OD, locus YJL187C, strain SWE1 (second series), active compounds read low
Among all 5,500 compounds or so, about 2,000 (36%) were called active. Another 18% or so got no clear call; they are omitted. Some of the results follow.
recorded-metric: normalized growth
Just the number, please.

Given the entry CC(=O)Oc1cc(OC(C)=O)c2c(c1)O[C@H](c1ccc(OC(C)=O)c(OC(C)=O)c1)[C@H](OC(C)=O)C2 , report its measured normalized growth.
1.01

Given the entry C[C@]12CCC(=O)C=C1C=CC1C2CC[C@@]2(C)C1CC[C@@]2(O)CCC(=O)O (stereo partly drawn) , report its measured normalized growth.
0.971

Given the entry O=C(Oc1cc(OC(=O)c2ccccc2)c2c(c1)O[C@H](c1ccc(OC(=O)c3ccccc3)c(OC(=O)c3ccccc3)c1)[C@@H](OC(=O)c1ccccc1)C2)c1ccccc1 , report its measured normalized growth.
1.07

Given the entry C#CCN(C)Cc1ccccc1 , report its measured normalized growth.
1

Given the entry O=C(O[C@@H]1Cc2c(O)cc(O)cc2O[C@@H]1c1ccc(O)c(O)c1)c1cc(O)c(O)c(O)c1 , report its measured normalized growth.
0.854

Given the entry O=C(O[C@@H]1Cc2c(O)cc(O)cc2O[C@@H]1c1cc(O)c(O)c(O)c1)c1cc(O)c(O)c(O)c1 , report its measured normalized growth.
0.29

Given the entry CC(=O)Oc1cc(OC(C)=O)c2c(c1)O[C@H](c1ccc(OC(C)=O)c(OC(C)=O)c1)[C@@H](OC(C)=O)C2 , report its measured normalized growth.
0.985

Given the entry Cc1ccccc1C(OCCN(C)C)c1ccccc1 (stereo not drawn) , report its measured normalized growth.
1

###

experimental-protocol: chemical genetic growth profiling, strain panel (AID 1159580);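 also: tested at 20 µM; growth read once vehicle control cultures reached saturation at 30 °C; 1 = growth at the plate median or of vehicle wells; lower values mean less growth of the strain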
measurement-parameters: S. cerevisiae deletion strains, growth OD, locus YLL041C, strain sdh2, active compounds read low
In all, about 5,500 compounds went through this assay and about 2,000 (36%) were called active. Not shown: some 18% with an inconclusive outcome. This is one part of the list.
recorded-metric: normalized growth

Given the entry O=C(O[C@@H]1Cc2c(O)cc(O)cc2O[C@@H]1c1ccc(O)c(O)c1)c1cc(O)c(O)c(O)c1 , report its measured normalized growth.
1.02 (inactive)

Given the entry C=CCc1ccc(O)c(OC)c1 , report its measured normalized growth.
0.989 (inactive)

Given the entry CCOC(=O)n1ccn(C)c1=S , report its measured normalized growth.
0.988 (inactive)

Given the entry COC(=O)C[C@H]1C2(C)CC34OC5(C)O[C@@]6([C@H](OC(C)=O)C(OC(C)=O)[C@]7(C)C(/C(=C(/O)C(C)C)C(=O)O[C@H]7c7ccoc7)[C@@]6(O5)[C@H](OC(C)=O)[C@@]3(O)C2OC(=O)C(C)C)[C@]14C (stereo not given in full) , report its measured normalized growth.
0.988 (inactive)

Given the entry COc1ccc(C(=O)CC(=O)O)c2c1C=CC(C)(C)O2 , report its measured normalized growth.
1.01 (inactive)

Given the entry CN(C)CCN(Cc1cccs1)c1ccccn1 , report its measured normalized growth.
1.01 (inactive)

Given the entry C=CC[C@]1(O)CCC2C3CCC4=CC(=O)CCC4=C3C=C[C@@]21C (stereo not given in full) , report its measured normalized growth.
0.991 (inactive)

Given the entry C[n+]1c2cc(N)ccc2cc2ccc(N)cc21 , report its measured normalized growth.
0.652 (active)

Given the entry CCCCC/C=C/CCC(=O)N[C@H]1[C@H](Oc2c3cc4cc2Oc2ccc(cc2Cl)[C@@H](O[C@@H]2O[C@H](CO)[C@@H](O)[C@H](O)[C@H]2NC(C)=O)[C@@H]2NC(=O)[C@H](NC(=O)[C@@H]4NC(=O)[C@H]4NC(=O)C(Cc5ccc(c(Cl)c5)O3)NC(=O)[C@H](N)c3ccc(O)c(c3)Oc3cc(O)cc4c3)c3ccc(O)c(c3)-c3c(OC4O[C@H](CO)[C@@H](O)[C@H](O)[C@@H]4O)cc(O)cc3[C@@H](C(=O)O)NC2=O)O[C@H](CO)[C@@H](O)[C@@H]1O (stereo not given in full) , report its measured normalized growth.
1 (inactive)

Given the entry C=C[C@@](C)(O)CCC1C(=C)CCC2[C@@](C)(CO)CCC[C@]12C (stereo not given in full) , report its measured normalized growth.
1.08 [resistant] (active)

Given the entry CCC[C@H](N[C@@H](C)C(=O)N1[C@H](C(=O)O)C[C@@H]2CCCC[C@@H]21)C(=O)OCC , report its measured normalized growth.
1.01 (inactive)

Given the entry COc1ccc(C(=O)O)cc1OC , report its measured normalized growth.
0.992 (inactive)

Given the entry COc1ccc(C2CNC(=O)C2)cc1OC1CCCC1 (stereo not given) , report its measured normalized growth.
1.01 (inactive)

Given the entry COC(=O)C[C@H]1C2(C)CC34OC5(C)O[C@@]6([C@H](OC)C(OC(=O)C(C)C)[C@]7(C)C(/C(=C(/OC)C(C)C)C(=O)O[C@H]7c7ccoc7)[C@@]6(O5)[C@H](OC)[C@@]3(OC)C2OC(C)=O)[C@]14C (stereo not given in full) , report its measured normalized growth.
0.987 (inactive)

Given the entry COc1cc([C@@H]2c3cc4c(cc3C(OC3O[C@@H]5COC(C)O[C@H]5[C@H](O)[C@H]3O)C3COC(=O)[C@@H]32)OCO4)cc(OC)c1O (stereo not given in full) , report its measured normalized growth.
1.02 (inactive)

###

experimental-protocol: chemical genetic growth profiling, strain panel (AID 1159580);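 also: tested at 20 µM; growth read once vehicle control cultures reached saturation at 30 °C; 1 = growth at the plate median or of vehicle wells; lower values mean less growth of the strain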
measurement-parameters: S. cerevisiae deletion strains, growth OD, locus YER167W, strain BCK2
Among all 5,500 compounds or so, about 2,000 (36%) were called active. Inconclusive results (about 18%) are left out. Rule as the data show it: active = normalized growth mostly below about 0.91 (no sharp cut-off); inconclusive = no clear call, values can overlap the other calls; inactive = mostly above about 0.92. The list shows a part of the results.
Outcomes you can answer with include only these: active, inactive

What did the test return for CCN(CC)C(=O)N1CCN(C)CC1 ?
inactive

What did the test return for Cn1c(=O)c2c(ncn2CC(O)CO)n(C)c1=O (configuration not stated) ?
inactive

What did the test return for NCCc1cnc[nH]1 ?
inactive

What did the test return for CN(C)CCN(Cc1ccccc1)c1ccccn1 ?
inactive

What did the test return for CN(C)CCN(Cc1cccs1)c1ccccn1 ?
inactive

What did the test return for COc1ccc(CN(CCN(C)C)c2ccccn2)cc1 ?
inactive

What did the test return for CC(=O)O[C@H]1C[C@@H](OC(C)=O)C(C)(C)C2CC(=O)[C@]3(C)C(CC[C@@]4(C)[C@H](C(=O)O)OC(=O)C5OC543)[C@]21C (some centres not stated) ?
inactive

What did the test return for O=C1C(Cl)=C(Cl)C(=O)C(Cl)=C1Cl ?
active

What did the test return for CN1C2CCC1CC(OC(c1ccccc1)c1ccccc1)C2 (configuration not stated) ?
inactive

What did the test return for CCCCNC(=O)NS(=O)(=O)c1ccc(C)cc1 ?
inactive

What did the test return for Nc1nc(=S)c2[nH]cnc2[nH]1 ?
inactive

What did the test return for CN1C2CCC1CC(OC(c1ccccc1)c1ccccc1N)C2 (configuration not stated) ?
inactive
